system: KM12 colon; test: NCI-60 one-dose screen, 48 h; settings: 10 µM unless noted
About 83,000 compounds went through this panel and 20% of them were active in at least one assay; those are over-represented in the sample as a whole. Calls of active or inactive are those of the source. Rule for the calls: active = growth percent below 10; inactive = the rest.
Outcome codes: active, inactive

compound	group
CCCCC#Cc1c(/C=C(\CCCC)SCC)n(C)c(=O)[nH]c1=O	inactive
COc1ccc(-c2nnc3n(C)c(=O)c4ccccc4n23)cc1O	inactive
CC(=O)N1N=C(c2ccc(F)cc2)CC1c1sc(N(C)Cc2ccccc2)nc1Cl (stereo unspecified)	inactive
Cn1cc2c(=O)nc3c(-c4nc5ccccc5[nH]4)n[nH]n3c2n1	inactive
COc1nc2ccc(C)cc2cc1/C=[N+](\[O-])c1ccccc1	inactive
Cc1ccc(-c2nc3nc(-c4ccccc4)nc(N4CCCNCC4)c3o2)cc1	active
N=C(N)SCc1c2ccccc2c(CSC(=N)N)c2ccccc12	inactive
O=C1c2cccc3cccc(c23)C(=O)N1N1C(=O)c2cccc3c(N4CCNCC4)ccc(c23)C1=O	inactive
Cc1ccc(S(=O)(=O)Nc2cc(Sc3ccccc3)c(O)c3ccccc23)cc1	inactive
O=C1CCc2c(sc3[nH]c(=S)n(Cc4ccc(Cl)cc4)c(=O)c23)C1	active
O=C(CCl)n1nnnc1Cc1ccccc1	inactive

====

system: RXF 393 renal; assay: NCI-60 one-dose screen, 48 h; conditions: 10 µM unless noted
The panel holds about 83,000 compounds, 20% with a hit somewhere; the sample as a whole holds those more often. Activity calls are given as the source filed them. The calls were made as follows: active = growth percent below 10; inactive = the rest.
Outcome codes: active, inactive

compound	group
CCC(=C(c1ccc(OCCCN(C)C)cc1)c1ccc(OCCCN(C)C)cc1)c1ccc(Cl)cc1	active
C=CCN1C=CC(=O)[C@H](O[Si](C)(C)C(C)(C)C)[C@@H]1/C=C/c1ccccc1	active
N#Cc1ccccc1OCC(=O)Nc1nc2c(s1)COc1ccccc1-2	inactive
COc1ccc2c(c1)c(C(=O)c1nc(-c3cn(C)c4ccccc34)no1)cn2C	inactive
Cc1ccc(/C=C(\C#N)c2cc3ccccc3[nH]2)cc1	inactive

====

system: MCF7 breast; test: NCI-60 one-dose screen, 48 h (100 = growth as untreated, 0 = no growth, -100 = all killed); conditions: 10 µM unless noted
About 83,000 compounds went through this panel and 20% of them were active in at least one assay; those are over-represented in the sample as a whole.
// bucketize growth: band 1 = under 30%, band 2 = from 30% up to 90%, band 3 = 90% and over

molecule	group
C[C@]12CCc3c(ccc4cc(O)ccc34)[C@@H]1C[C@H](O)[C@@H]2O	band 3
COCCn1cc(-c2csc(-c3cn(C)c4ccc(F)cc34)n2)c2cccnc21	band 1
O=C(Nc1ccc(F)cc1)c1cc2cc(Nc3nc(-c4ccccc4)nc4ccccc34)ccc2oc1=O	band 3
C=C(C)[C@@H]1CC[C@]2(C(=O)O)CC[C@]3(C)[C@H](CC[C@@H]4[C@@]5(C)CCC(N)C(C)(C)[C@@H]5CC[C@]43C)[C@@H]12 (some centres undefined)	band 1
c1cc(NCCCCN2CCOCC2)c2ccc3c(ccc4c(NCCN5CCOCC5)ccnc43)c2n1	band 2
OCCN1CCN(c2cc(-c3cccc(OC(F)(F)F)c3)nc3ccc(N4CCCC4)cc23)CC1	band 1
Cc1ccc(NC(=O)N/C(N)=N/c2nc(=O)c3ccccc3s2)cc1	band 2

====

test system: HCC-2998 colon; experiment: NCI-60 one-dose screen, 48 h (100 = growth as untreated, 0 = no growth, -100 = all killed); conditions: 10 µM unless noted
Compounds without any hit were thinned out: in the full panel of roughly 83,000, 20% have a hit.
# if measured growth < 40%: 1  # else: -1

compound	group
CN(Cc1ccccc1)c1nc(Cl)c(C2CC(c3ccc(F)cc3)=NN2C=O)s1 (stereo not given)	-1
Cn1cc(-c2nonc2-c2cn(C)c3ccc(Br)cc23)c2ccccc21	-1
CCOc1nc(-c2ccccc2)cc2c(O)c(C(=O)N/N=C/c3ccc(N(C)C)cc3)[nH]c(=O)c12	1
CCCCCCCCCCCCCCCCCCOc1cccc(CC(=O)OCC[N+](CC)(CC)CC)c1	-1

====

tested on: HT29 colon; test: NCI-60 one-dose screen, 48 h; conditions: 10 µM unless noted
This is part of a sample that, as a whole, favours compounds with a hit. Of some 83,000 tested, about 20% had one in any assay. Activity calls are given as the source filed them. Rule for the calls: active = growth percent below 10; inactive = the rest.
Outcome codes: y (active), n (inactive)

compound	group
COc1cc(OC)cc(-c2ccc(-c3ccc(C(=N)N)cn3)s2)c1	n
Fc1ccccc1-c1cnn2cc(-c3ccccc3)cnc12	n
CC1(C)C(N)=Nc2cc(OCCCCN3Cc4ccccc4C3)c(OCC3CC3)cc21	n
O=C1/C(=C/c2ccccc2)CN(C(=O)C(Cl)Cl)C/C1=C\c1ccccc1	y
CCNC(=O)Nc1ncccc1OCc1ccc(F)cc1	n
C[N+]1=C(/C=C\C=C\c2ccccc2)C(C)(C)c2ccccc21	n
Cn1cc(-c2csc(-c3c[nH]c4ccc(F)cc34)n2)c2cnccc21	y
O=C(/C=C/C12c3ccccc3C(c3ccccc31)C1C(=O)NC(=O)C12)c1ccncc1 (stereo unspecified)	n
Nc1nc(Nc2cccnc2)sc1C(=O)c1ccccc1F	n
C=CCN1C=CC(=O)[C@H](O[Si](C)(C)C(C)(C)C)[C@@H]1/C=C/c1ccccc1	y
COc1ccc2c(c1)CCNC21C(=O)Nc2c(Br)cc(Br)cc21 (stereo unspecified)	n

====

# growth per record follows
test system: NCI/ADR-RES ovarian; assay: NCI-60 one-dose screen, 48 h (100 = growth as untreated, 0 = no growth, -100 = all killed); details: 10 µM unless noted
This is part of a sample that, as a whole, favours compounds with a hit. Of some 83,000 tested, about 20% had one in any assay.

compound	output_unit	growth
COc1nc(=O)n(C2C=CC(=O)O2)cc1F (centres undefined)	%	111
N=C(N)c1ccc(-c2ccc(-c3ccc(F)cc3)s2)nc1	%	93.5
CC(=O)c1nn(-c2ccccc2)/c(=N/N=Cc2cn(-c3ccccc3)nc2-c2cc3ccccc3oc2=O)s1	%	107
O=C1CCc2c(sc3[nH]c(=S)n(Cc4ccc(Cl)cc4)c(=O)c23)C1	%	-0.97
COc1ccc(-c2cc(-c3cc(OC)c(OC)c(OC)c3)c(C#N)c(=O)n2CCCCC(=O)O)cc1	%	102
NC1=CC(=O)c2cccnc2C1=O	%	1.37
N#Cc1cc(-c2ccnc(Nc3ccc(NC(=O)CCl)cc3)n2)ccc1N1CCCC1	%	10.9
O=C(CCl)n1nnnc1Cc1ccccc1	%	101
O=C([C@H]1C[C@H]1c1ccc(S(F)(F)(F)(F)F)cc1)N1CCN(c2cc(Cl)ccc2C(F)(F)F)CC1	%	95.5
Nc1[nH]nc(Nc2ccccc2)c1-c1nc2ccccc2s1	%	30
CC(C)(C)CC(N)=O	%	102
CCCCCCCC/C=C\CCCCCCCCOc1ccccc1CC(=O)NCC[N+]1(C)CCOCC1	%	97.9
COc1ccc(-c2c[nH]c(C(=O)O)c2-c2cc(OC)c(OC)c(OC)c2)cc1	%	24.2
COC(=O)c1nc(-c2ccc(C)cc2)oc1S(=O)(=O)c1ccc(Cl)cc1	%	105
O=C1OCC2=C1C(c1cccc([N+](=O)[O-])c1)c1cc3c(cc1N2CCO)CCC3 (centres undefined)	%	3.57
CC(=NCc1ccccc1)c1ccc(O)cc1O	%	98.4
Cc1ccc2c(c1)C(C)Cc1c(ncnc1-n1cnc3cc(C)ccc31)N2C (centres undefined)	%	5.12
C=C1C(=O)O[C@H]2[C@H]1CC/C(COC(=O)NCCCCNC(=O)OC/C1=C/CC[C@@]3(C)O[C@H]3[C@H]3OC(=O)C(=C)[C@@H]3CC1)=C\CC[C@@]1(C)O[C@@H]21	%	99.5
CN1CCCc2cc(/C=C3\SC(=S)N(C(Cc4ccc(O)cc4)C(=O)O)C3=O)ccc21 (centres undefined)	%	100
C=C(CNCCO)[C@@H]1CC[C@]2(CO)CC[C@]3(C)[C@H](CC[C@@H]4[C@@]5(C)CCC(NCCc6ccc(O)cc6)C(C)(C)[C@@H]5CC[C@]43C)[C@@H]12 (some centres undefined)	%	33.4
CS(=O)(=O)Nc1cc(-c2ccc3ncnc(Nc4ccc(F)c(Cl)c4)c3c2)cnc1Cl	%	34.2
N=C(N)SCc1c2ccccc2c(CSC(=N)N)c2ccccc12	%	103
Cc1ccc(NC(=O)c2sc3nc(C)c(C(=O)c4ccccc4)cc3c2N)cc1	%	95.2
S=c1nc(CS)[nH]c2ccccc12	%	101
CCCCC1COc2cccc3c2N1C=C/C3=C\C(=O)N(C)c1cccc(Cl)c1 (centres undefined)	%	97.7
O=C1C(c2c[nH]c3ccccc23)=C(c2coc3cc(Br)ccc23)C(=O)N1O	%	105
Cc1ccc(C(=O)c2ccc(CC(=O)N=Nc3c(O)[nH]c4ccc(OC(F)(F)F)cc34)n2C)cc1	%	92.4
COc1cc(/C=C/C(=O)c2ccc(NC(=O)CSc3nnc(-c4cc(-c5ccccc5)nc5ccccc45)n3-c3ccccc3)cc2)cc(OC)c1OC	%	86.7
CN(C)C(=O)c1cc2cnc(Nc3ccc(-c4csc5c(=S)cc(N6CCOCC6)oc45)cc3)nc2n1C1CCCC1	%	14.1
Cc1ccc(Nc2nc(-c3cc(O)c(C)c(C)c3O)cs2)cc1	%	73
COC(=O)c1nc(-c2ccc(C)cc2)oc1Sc1ccc(C)cc1	%	108
O=C(NCc1ccc(Cn2c(=O)sn(-c3ccc(Cl)cc3)c2=O)cc1)OCc1ccc2c(Cl)cc(Cl)c(O)c2n1	%	6.82
Cc1ccccc1SSc1ccccc1C	%	86.4
CN(C)CCCn1c2c(c3ccc(N4CCNCC4)cc3c1=O)C(=O)c1ccccc1-2	%	-13.8
COc1cc(/C=C2\C(=O)N(CCCCn3c4ccccc4c(=O)c4ccccc43)c3ccccc32)cc(OC)c1O	%	48.6
CCN(CC)CCCN1C(=O)c2c(c(C)c3c(oc4cc(OC)ccc43)c2C)C1=O	%	96
COc1cc(Cl)cc(-c2nn(C(=O)NS(=O)(=O)c3ccc(Cl)cc3)cc2-c2ccncc2)c1	%	84.1
Cc1ccc(S(=O)(=O)OC[C@@]2(C)CC[C@]3(C)CC[C@]4(C)C(=C3C2)C=C[C@@H]2[C@@]3(C)CCCNC(C)(C)[C@@H]3CC[C@]24C)cc1	%	-19.7
CCOC(=O)c1nc2c3ccccc3cnn2c1C(=O)c1ccc(OC)cc1	%	94.4
